system: human Factor 11 mRNA; assay: Dose-dependent inhibition of human Factor 11 in HepB3 cells, lipofectin (Example 7); format: cell-based; conditions: 9.4 nM, ~16 hours
Endpoint: percent inhibition of Factor 11 mRNA relative to untreated control cells (%)

{"columns": ["Substance", "Val"],
 "data": [
  ["416850 (antisense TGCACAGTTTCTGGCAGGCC; 5-10-5 gapmer, further chemistry not given here) [compound 416850]", 43],
  ["416858 (antisense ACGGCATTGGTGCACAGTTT; 5-10-5 gapmer, further chemistry not given here) [compound 416858]", 43],
  ["416892 (antisense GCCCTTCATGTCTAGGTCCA; 3-14-3 chimeric gapmer, further chemistry not given here) [compound 416892]", 50]
]}

----------
Experiment: Bleeding assay, Surgicutt Jr. device (Example 45)
Assay type: in vivo, cynomolgus monkeys
Set-up: unit not given here
Conditions: day 57; escalating dose regimen
Procedure: Groups, each consisting of two male and three female monkeys, were injected subcutaneously with ISIS 416838, ISIS 416850, ISIS 416858, ISIS 416864, or ISIS 417002 in escalating doses. […] Body weights were measured weekly. […] On different days during the treatment period, bleeding assay was performed using a Surgicutt Jr. device (ITC, New Jersey). […] The stopwatch was then stopped and the bleeding time determined. […]
Listing of recorded bleeding time by entry.
Endpoint: bleeding time

{"columns": ["Substance", "Val"],
 "data": [
  ["ISIS 416850: MOE gapmer, nucleobases 1275 to 1318 of SEQ ID NO: 1 (Table 8) (antisense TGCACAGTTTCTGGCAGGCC; MOE gapmer, wing and gap sizes not given here)", 195],
  ["ISIS 417002: MOE gapmer, nucleobases 1275 to 1318 of SEQ ID NO: 1 (Table 8) (antisense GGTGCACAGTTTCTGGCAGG; MOE gapmer, wing and gap sizes not given here)", 206]
]}

----------
System: Factor 11 protein
Experiment: Factor 11 protein in monkey plasma by sandwich ELISA (Example 46)
Type: in vivo, cynomolgus monkeys
Conditions: Day 10, plasma, 25 mg/kg subcutaneously
Protocol: Groups, each consisting of two male and two female monkeys, were injected subcutaneously with 25 mg/kg of ISIS 416850, ISIS 449709, ISIS 445522, ISIS 449710, ISIS 449707, ISIS 449711, ISIS 449708, 416858, and ISIS 445531. […] Body weights were taken 14 days and 7 days before the start of treatment and were then measured weekly throughout the treatment period. […] The results are presented in Table 147, expressed as percentage reduction relative to that of the PBS control.
Strand notation (5' to 3'): a small letter for the sugar, then the base; units joined by * are phosphorothioate-linked, units joined directly phosphodiester-linked; [ ] holds rarer units or linkages, { } end groups; capitals alone tell only the bases. e = 2'-O-(2-methoxyethyl) (MOE); [5mC] = 5-methylcytosine; d = 2'-deoxy (DNA)
Listing of recorded Inhibition of Factor 11 protein relative to the PBS control (percentage reduction) by entry.
Endpoint: Inhibition of Factor 11 protein relative to the PBS control (percentage reduction) (%)

{"columns": ["Substance", "Val"],
 "data": [
  ["445522 (antisense eG*e[5mC]*eA*e[5mC]*eA*dG*dT*dT*dT*d[5mC]*dT*dG*dG*e[5mC]*eA*eG*eG*e[5mC]) [compound 445522]", 36],
  ["449710 (antisense e[5mC]*eA*e[5mC]*dA*dG*dT*dT*dT*d[5mC]*dT*dG*dG*d[5mC]*eA*eG*eG) [compound 449710]", 10],
  ["449707 (antisense e[5mC]*eA*e[5mC]*eA*dG*dT*dT*dT*d[5mC]*dT*dG*dG*e[5mC]*eA*eG*eG) [compound 449707]", 16]
]}
